assay: melting temperature; fluorescence melt of hairpins on a sequencing array, two-state fit, raised by 9.35 °C to match UV melts; conditions: sodium 0.088 M
MEASUREMENT KIND: Tm (°C)
Write the answer as a number in °C, unit excluded.

>  <SEQUENCE CONTENT>
GGAAGTGGAAACATTTCC ((((.((....)).))))

>  <UNIT ABBREV>
°C

>  <Tm>
40.3

$$$$
>  <SEQUENCE CONTENT>
GATCTCGATGGAGATC ((((((....))))))

>  <UNIT ABBREV>
°C

>  <Tm>
52.9

$$$$

Briefly, Tm measured for GCAGCTGCGAAAGCATGC (((..(((....)))))) : 45.1

----------
experiment: folding enthalpy; higher = less favourable; fluorescence melt of hairpins on a sequencing array, two-state fit; conditions: sodium 0.088 M
MEASUREMENT KIND: folding enthalpy (kJ/mol)
Write the answer as a number in kJ/mol, unit excluded.

>  <SEQUENCE CONTENT>
CGCGTCGGAAACGAAGCG (((.(((....))).)))

>  <folding enthalpy (kJ/mol)>
-142

$$$$
>  <SEQUENCE CONTENT>
GAAGCTGGAAACGGCTTC (((((.(....).)))))

>  <folding enthalpy (kJ/mol)>
-180

$$$$

Briefly, folding enthalpy measured for GGGTTACCGAAAGGTCCC (((..(((....)))))) : -81.1

----------
assay: folding enthalpy; higher = less favourable; fluorescence melt of hairpins on a sequencing array, two-state fit; conditions: sodium 0.088 M
MEASUREMENT KIND: folding enthalpy (kcal/mol)
Write the answer as a number in kcal/mol, unit excluded.

Solved entries (count: 6):
>  <SEQUENCE CONTENT>
GAATGCGGAAACGCGTTC (((.(((....))).)))

>  <UNIT ABBREV>
kcal/mol

>  <folding enthalpy>
-37.5

$$$$
>  <SEQUENCE CONTENT>
GCATGGCGAAAGCGGTGC (((..((....))..)))

>  <UNIT ABBREV>
kcal/mol

>  <folding enthalpy>
-23.8

$$$$
>  <SEQUENCE CONTENT>
GTGCCCGAAAGGGCCCAC ((((((....)))..)))

>  <UNIT ABBREV>
kcal/mol

>  <folding enthalpy>
-5.79

$$$$
>  <SEQUENCE CONTENT>
GTAAAAGGAAACTTTTGC (.(((((....))))).)

>  <UNIT ABBREV>
kcal/mol

>  <folding enthalpy>
-24.1

$$$$
>  <SEQUENCE CONTENT>
GCTCAGCGAAAGCAGGGC ((.(.((....)).).))

>  <UNIT ABBREV>
kcal/mol

>  <folding enthalpy>
-19

$$$$
>  <SEQUENCE CONTENT>
GAAAAACGAAAGTTTTC (((.(((....))))))

>  <UNIT ABBREV>
kcal/mol

>  <folding enthalpy>
-15.7

$$$$

Briefly, folding enthalpy measured for GACCCCGAAAGGGGTGTC ((((((....)))..))) : -9.59

Briefly, folding enthalpy measured for GAGGGCGGAAACACCCTC (((((.(....).))))) : -33.7

Briefly, folding enthalpy measured for GGCATCGAAAGATGGGCC ((((((....)))..))) : -19.2

Briefly, folding enthalpy measured for GTGTAGCGAAAGCTGCAC (((.(((....))).))) : -36.6

Briefly, folding enthalpy measured for GCGATCCGAAAGGACCGC (((.(((....))).))) : -36.1

Briefly, folding enthalpy measured for GATCAGCCCTCTGATC ((((((....)))))) : -35.3

----------
Listed sequences paired with reported folding enthalpy
assay: folding enthalpy; higher = less favourable; fluorescence melt of hairpins on a sequencing array, two-state fit; conditions: sodium 0.088 M

Solved entries (count: 6):
>  <SEQUENCE CONTENT>
GATCCGGAACCGGATC ((((((....))))))

>  <folding enthalpy>
-39.9 kcal/mol

$$$$
>  <SEQUENCE CONTENT>
GGACGCGAAAGCGCTCC ((((((....))).)))

>  <folding enthalpy>
-20.5 kcal/mol

$$$$
>  <SEQUENCE CONTENT>
GATCAATTGCTTGATC ((((((....))))))

>  <folding enthalpy>
-33.7 kcal/mol

$$$$
>  <SEQUENCE CONTENT>
GATCCCATAGGGATC ((((((...))))))

>  <folding enthalpy>
-36.9 kcal/mol

$$$$
>  <SEQUENCE CONTENT>
GGGAGCGAAAGCTGACCC ((((((....)))..)))

>  <folding enthalpy>
-16.5 kcal/mol

$$$$
>  <SEQUENCE CONTENT>
GCGTGAAAACGC ((((....))))

>  <folding enthalpy>
-32.6 kcal/mol

$$$$

Briefly, folding enthalpy measured for GGGAGCGAAAGCTACCCC ((((((....)))..))) : -12 kcal/mol

Briefly, folding enthalpy measured for GAATGCGAAAGCAAATTC ((((((....)))..))) : -18.9 kcal/mol

Briefly, folding enthalpy measured for GATCTTGTGAAAGATC ((((((....)))))) : -37.3 kcal/mol

----------
test: folding enthalpy; higher = less favourable; fluorescence melt of hairpins on a sequencing array, two-state fit; conditions: sodium 0.088 M
MEASUREMENT KIND: folding enthalpy (kJ/mol)
Write the answer as a number in kJ/mol, unit excluded.

Solved entries (count: 2):
>  <SEQUENCE CONTENT>
GTAGGTGGAAACACTTGC (.(.(((....))).).)

>  <folding enthalpy [kJ/mol]>
-60

$$$$
>  <SEQUENCE CONTENT>
GATCTCGTACGAGATC ((((((....))))))

>  <folding enthalpy [kJ/mol]>
-166

$$$$

Briefly, folding enthalpy measured for GGCCGTGGAAACACGACC ((.((((....)))).)) : -151

Briefly, folding enthalpy measured for GGGACGCGAAAGCGCCC (((.(((....)))))) : -64.4

Briefly, folding enthalpy measured for GCGGTAGGAAACTGCTGC ((.(.((....)).).)) : -115

Briefly, folding enthalpy measured for TTTGCGAAAGCAAA (((((....))))) : -72.7

Briefly, folding enthalpy measured for GTCGTCGAAAGACAGGAC ((((((....)))..))) : -76.5

Briefly, folding enthalpy measured for GATCTTATTAAGATC ((((((...)))))) : -142

Briefly, folding enthalpy measured for GCAGCCGCGAAAGCGTGC (((..(((....)))))) : -37

Briefly, folding enthalpy measured for GCAGTGGAAACACTGC ((((((....)))))) : -138

Briefly, folding enthalpy measured for GCGGAGCGAAAGCTGAGC ((..(((....)))..)) : -61.1

Briefly, folding enthalpy measured for GATCCCATTAGGGATC ((((((....)))))) : -153

Briefly, folding enthalpy measured for GGCCCGCGAAAGCGCGCC (((.(((....))).))) : -111

Briefly, folding enthalpy measured for GCGGTAACCCGC ((((....)))) : -116

Briefly, folding enthalpy measured for GTGAGAGGAAACTCTTGC (..((((....))))..) : -85

Briefly, folding enthalpy measured for GATCCAAAAGTGGATC ((((((....)))))) : -115

Briefly, folding enthalpy measured for GATCCGTCTGCGGATC ((((((....)))))) : -186

Briefly, folding enthalpy measured for GACCACGAAAGTGCCGTC ((((((....)))..))) : -50.3

Briefly, folding enthalpy measured for GAACAAGGAAACTTGTCC (.(((((....))))).) : -64.5

Briefly, folding enthalpy measured for GTCAGCGAAAGCTGGGAC ((((((....)))..))) : -38.2

Briefly, folding enthalpy measured for GCAAAGGCGAAAGCCTGC (((..(((....)))))) : -62.2

Briefly, folding enthalpy measured for GACTACACGAAAGTGGTC (((..(((....)))))) : -59.6

Briefly, folding enthalpy measured for GGGAGCCCGAAAGGGCCC (((..(((....)))))) : -44.9

Briefly, folding enthalpy measured for GAATTCGGAAACGAATTC (((((((....))))))) : -147

Briefly, folding enthalpy measured for GCTAAAGGAAACCTTAGC (((((.(....).))))) : -108

----------
assay: melting temperature; fluorescence melt of hairpins on a sequencing array, two-state fit, raised by 9.35 °C to match UV melts; settings: sodium 0.088 M
// boundary case: Tm equal to 50 °C maps to No; strictly smaller maps to Yes

Solved cases below.
>  <SEQUENCE CONTENT>
GCTCCACGAAAGTGCAGC (((.(((....))).)))

>  <CLASS ASSIGNMENT>
Yes

$$$$
>  <SEQUENCE CONTENT>
GATCTCGGATGAGATC ((((((....))))))

>  <CLASS ASSIGNMENT>
No

$$$$
>  <SEQUENCE CONTENT>
GCCCTGCGAAAGCAGGC (((.(((....))))))

>  <CLASS ASSIGNMENT>
No

$$$$
>  <SEQUENCE CONTENT>
GTCGTCTCGAAAGAGGAC (((..(((....))))))

>  <CLASS ASSIGNMENT>
Yes

$$$$

Moving on to the next sequence.
Ask | Say whether its Tm is strictly beneath 50 °C. Entry: GGTCTAGGAAACTAGACC (((((((....)))))))
Reply | No
